target or system: KATP channels (Homo sapiens, UniProt O60706+Q14654)
Construct: TE671 human medulloblastoma cells were obtained from ATCC
Sequence (O60706 1-1549 isoform O60706-2): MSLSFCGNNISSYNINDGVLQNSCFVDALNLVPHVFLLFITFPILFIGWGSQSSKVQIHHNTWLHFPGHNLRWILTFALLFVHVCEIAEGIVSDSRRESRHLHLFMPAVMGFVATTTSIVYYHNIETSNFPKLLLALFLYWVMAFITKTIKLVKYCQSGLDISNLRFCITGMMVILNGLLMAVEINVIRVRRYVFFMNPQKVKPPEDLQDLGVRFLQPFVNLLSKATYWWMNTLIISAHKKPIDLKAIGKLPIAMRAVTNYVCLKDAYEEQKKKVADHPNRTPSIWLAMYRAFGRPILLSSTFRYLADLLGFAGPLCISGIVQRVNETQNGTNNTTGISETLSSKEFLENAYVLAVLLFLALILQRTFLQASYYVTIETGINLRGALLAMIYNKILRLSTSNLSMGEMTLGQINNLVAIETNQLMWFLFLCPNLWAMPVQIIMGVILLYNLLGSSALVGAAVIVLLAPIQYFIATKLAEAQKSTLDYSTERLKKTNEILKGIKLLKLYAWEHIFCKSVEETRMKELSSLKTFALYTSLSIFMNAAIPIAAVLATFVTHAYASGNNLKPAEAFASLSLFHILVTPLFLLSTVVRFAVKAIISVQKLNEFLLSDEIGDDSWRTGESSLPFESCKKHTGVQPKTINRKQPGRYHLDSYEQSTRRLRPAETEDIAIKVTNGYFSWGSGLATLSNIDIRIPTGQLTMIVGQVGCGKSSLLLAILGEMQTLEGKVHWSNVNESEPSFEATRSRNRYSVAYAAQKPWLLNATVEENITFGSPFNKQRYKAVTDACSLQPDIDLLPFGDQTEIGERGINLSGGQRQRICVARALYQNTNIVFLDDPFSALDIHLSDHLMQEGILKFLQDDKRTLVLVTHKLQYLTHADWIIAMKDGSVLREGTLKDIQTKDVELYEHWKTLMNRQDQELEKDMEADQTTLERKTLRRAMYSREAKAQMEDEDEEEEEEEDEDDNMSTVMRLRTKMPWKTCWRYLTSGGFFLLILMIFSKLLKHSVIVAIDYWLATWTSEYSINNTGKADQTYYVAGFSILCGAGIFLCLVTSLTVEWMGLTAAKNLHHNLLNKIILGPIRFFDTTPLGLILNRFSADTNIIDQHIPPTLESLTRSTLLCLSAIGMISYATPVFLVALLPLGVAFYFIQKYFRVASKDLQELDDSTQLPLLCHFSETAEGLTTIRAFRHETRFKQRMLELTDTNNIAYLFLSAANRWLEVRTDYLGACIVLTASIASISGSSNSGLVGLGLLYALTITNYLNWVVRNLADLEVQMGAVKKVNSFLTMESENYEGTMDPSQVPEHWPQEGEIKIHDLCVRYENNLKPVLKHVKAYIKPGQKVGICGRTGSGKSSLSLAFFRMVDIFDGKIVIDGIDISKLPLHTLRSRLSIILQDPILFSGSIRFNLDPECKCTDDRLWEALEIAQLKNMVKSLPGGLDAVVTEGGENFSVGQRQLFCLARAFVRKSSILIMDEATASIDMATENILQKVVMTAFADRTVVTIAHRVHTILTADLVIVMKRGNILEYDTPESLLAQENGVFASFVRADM
Sequence (Q14654 whole entry): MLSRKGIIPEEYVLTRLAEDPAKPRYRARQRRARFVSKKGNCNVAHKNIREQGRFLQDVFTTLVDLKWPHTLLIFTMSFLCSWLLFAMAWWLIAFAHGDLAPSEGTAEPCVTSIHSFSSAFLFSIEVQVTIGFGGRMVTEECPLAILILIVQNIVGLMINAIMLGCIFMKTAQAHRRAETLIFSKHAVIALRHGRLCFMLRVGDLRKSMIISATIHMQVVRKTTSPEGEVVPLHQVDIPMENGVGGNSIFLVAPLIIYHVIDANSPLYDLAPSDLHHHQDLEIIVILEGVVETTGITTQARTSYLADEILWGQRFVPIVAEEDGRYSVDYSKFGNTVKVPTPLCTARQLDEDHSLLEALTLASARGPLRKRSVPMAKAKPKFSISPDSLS
test summary: Potassium Channel Assay (FLIPR membrane potential)
details: TE671 human medulloblastoma cells, Membrane Potential Assay Dye, room temperature, hyperpolarization from KATP channel opening
measurement name: EC50

| molecule | EC50 |
| --- | --- |
| CC1(C)Oc2ccc(C#N)cc2[C@@H](Sc2ncc[nH]2)[C@@H]1O | 0.84 µM |
| CC1(C)Oc2ccc(S(=O)(=O)c3ccccc3)cc2[C@@H](Oc2noc3ccc(Cl)cc23)[C@@H]1O | > 30 µM |

(Q) Test system KATP channels (Homo sapiens, UniProt O60706+Q14654); read-out EC50; what value for CC1(C)Oc2ccncc2[C@@H](n2c(=O)ccn2-c2ccc(Cl)cc2)[C@@H]1O (racemic) ?
(A) > 30 µM
